Below: molecules with IC50 recorded for BTK (Homo sapiens, UniProt Q06187) in separate published works.

Below: 3 molecules and their reported IC50.
C=CS(=O)(=O)Nc1cccc(Nc2cc(Nc3ccc(F)c(Cl)c3)ncn2)c1; 10 to 100 nM
C[C@H]1CNC(=O)c2cnn3c(N)c(-c4ccc(F)cc4)c(nc23)NCc2cc(F)cnc2O1; 1 nM
Cn1cc(-c2cn3nccc3c(-c3ccc(CNC(=O)c4cnn(C(C)(C)C)n4)c(F)c3F)n2)cn1; < 1 nM

Lab note: next molecule to report on.
I'd like to know its IC50. The molecule in question is C=CC(=O)N1CCC2CCN(c3c(F)cc(C(N)=O)c4[nH]c(C)c(C)c34)CC21 (stereo not shown)
10 to 100 nM
